The reported numbers originate from PubChem BioAssay (NCI).

tested on: BT-549 breast; assay: NCI-60 one-dose screen, 48 h (100 = growth as untreated, 0 = no growth, -100 = all killed); details: 10 µM unless noted
Compounds without any hit were thinned out: in the full panel of roughly 83,000, 20% have a hit.
Labelling field: enter Y if recorded growth is less than 80%. Enter N if it equals or exceeds that cut-off.

> print(dat)
                                   molecule  assigned.category
1  CN1CCN(CC(=O)N2c3cccc4cccc(c34)N(C(=O)CN3CCN(C)CC3)C2c2cn(-c3ccccc3)nc2-c2cccc([N+](=O)[O-])c2)CC1                  Y
2  COc1ccc2c(c1)nc(NNC(=O)c1cnccn1)c1cccn12                  Y
3  Cc1cc2nc3ccc(N=Nc4ccc(N(C)C)cc4)cc3n(-c3ccccc3)c-2cc1=N                  Y
4  COc1ccc2nc(NCCCNCCO)c3sc4ccc(F)cc4c(=O)c3c2c1                  N
5  Cc1ccc2c(-c3cc(-c4ccccc4)nc(N)c3C#N)cc(=O)oc2c1                  Y
6             COc1cc(/C=C/c2ccccc2)cc(OC)c1                  N
7  CN(C)c1ccc2nc3ccc(=[N+](C)C)c([N+](=O)[O-])c-3sc2c1                  Y
8  CCOC(=O)C1=C(N)Oc2c(sc3c(C)cccc23)C1c1ccc(OC)cc1 (centres undefined)                  Y

###

test system: OVCAR-4 ovarian; experiment: NCI-60 one-dose screen, 48 h; conditions: 10 µM unless noted
Compounds without any hit were thinned out: in the full panel of roughly 83,000, 20% have a hit. Active and inactive are the calls of the source. The calls were made as follows: active = growth percent below 10; inactive = the rest.
Classes used: 1.0 = active, 0.0 = inactive

> print(dat)
                                   compound      system.name  assigned.category
1  CCN1C(=O)N(CC)C2Nn3c(s/c(=C4\C(=O)N(CC(C)C)c5ccccc54)c3=O)=NC21 (centres undefined)  OVCAR-4 ovarian                0.0
2  O=C(/C=C/c1cccc2ccccc12)c1ccc(NC(=O)c2ccccc2CN2C(=O)c3ccccc3C2=O)cc1  OVCAR-4 ovarian                0.0
3  O=C1CN(CCN2CC(=O)N(Cc3ccccc3)C(=O)C2)CC(=O)N1Cc1ccccc1  OVCAR-4 ovarian                0.0
4            COc1cc(C)c(Cc2cnc(N)nc2N)cc1OC  OVCAR-4 ovarian                0.0
5  CN(C)CCS(=O)(=O)Nc1cc(-c2ccc3ncc(C#N)c(Nc4ccc(F)c(Cl)c4)c3c2)cnc1Cl  OVCAR-4 ovarian                1.0
6  COc1ccc2c(c1)C(C)Cc1c(ncnc1-n1c(C)nc3ccccc31)N2C (centres undefined)  OVCAR-4 ovarian                0.0
7  COC(=O)C(Cc1ccccc1)NC(=O)NC(=O)NC(=O)CI (centres undefined)  OVCAR-4 ovarian                0.0
8  C=C1CC[C@@]2(C#N)[C@H]3[C@H](CC[C@@H]2C)[C@@H](C)C[C@@H](CC(C)(C)C#N)[C@H]13  OVCAR-4 ovarian                0.0
9  CCc1cccc2c3c(sc12)C(c1ccc(F)cc1)C(C#N)=C(N)O3 (centres undefined)  OVCAR-4 ovarian                0.0
